molecular target: Protein farnesyltransferase (Homo sapiens, UniProt P49354+P49356)
endpoint.label: pEC50
Please express pEC50 as -log10 of the molar concentration.

Param readout= pEC50; system= Protein farnesyltransferase (Homo sapiens, UniProt P49354+P49356); entry= Cn1cncc1C(OCc1c(-c2cc(Cl)ccc2Cl)cc(C#N)c(=O)n1C)c1ccc(C#N)cc1 (stereo unspecified) ; returns value.
8.92

---

Each entry below carries its recorded pIC50.
molecular target: Protein farnesyltransferase (Homo sapiens, UniProt P49354+P49356); assay: In vitro inhibitory activity against farnesyltransferase (FT)
Please express pIC50 as -log10 of the molar concentration.

> print(dat)
                                   molecule  reading
1  Cn1cncc1C(OCc1c(-c2cc(Cl)ccc2Cl)cc(C#N)c(=O)n1C)c1ccc(C#N)cc1 (stereo not drawn)     8.80
2  Cn1cncc1C(OCc1c(-c2ccc(Cl)c(Cl)c2)cc(C#N)c(=O)n1C)c1ccc(C#N)cc1 (stereo not drawn)     9.31
3  Cn1cncc1C(OCc1c(-c2cc(Cl)cc(Cl)c2)cc(C#N)c(=O)n1C)c1ccc(C#N)c(-c2cccc(Cl)c2)c1 (stereo not drawn)     8.70
4  Cn1cncc1C(OCc1c(-c2ccc(OC(F)(F)F)cc2)cc(C#N)c(=O)n1C)c1ccc(C#N)cc1 (stereo not drawn)     9.14
5  CCOc1cccc(-c2cc(C#N)c(=O)n(C)c2COC(c2ccc(C#N)cc2)c2cncn2C)c1 (stereo not drawn)     9.17

Param item = Cn1cncc1C(OCc1[nH]c(=O)c(C#N)cc1-c1cccc(Cl)c1)c1ccc(C#N)cc1 (stereo not drawn) ; retrieve measured pIC50.
9.07

Another molecule: Cn1cncc1C(OCc1c(-c2ccc(OC(F)(F)F)cc2)cc(C#N)c(=O)n1C)c1ccc(C#N)c(Cl)c1 (stereo not drawn)
9.44

Another molecule: Cn1c(COC(c2ccc(C#N)cc2)c2c[nH]cn2)c(-c2cccc(Cl)c2)cc(C#N)c1=O (stereo not drawn)
7.15
